Data credit: PubChem BioAssay (NCATS)

System: KB-3-1
Test: Cytotoxic Profiling of Annotated Libraries Using Quantitative High-Throughput Screening (AID 1296008); also: % is scaled to controls: 0 for no effect and ±100 for the full control effect; nearly all actives have a fitted effect of over 60% in size
Settings: Five cell lines viability, CellTiter-Glo ATP luminescence, 48-72 h; active compounds read low
Inconclusive results are not listed.
assay-metric: max response (%)
Enter your answer as a number in %; do not include the unit.

Item: CC1(C)CC[C@]2(C(=O)O[C@@H]3O[C@H](CO)[C@@H](O)[C@H](O)[C@H]3O)CC[C@]3(C)C(=CCC4[C@@]5(C)CC[C@H](O[C@H]6O[C@H](CO)[C@@H](O)[C@H](O[C@@H]7O[C@H](CO)[C@@H](O)[C@H](O)[C@H]7O)[C@H]6O)C(C)(C)C5CC[C@]43C)[C@@H]2C1 (some centres not stated) | max response: 4.79

Note to self: max response recorded for COC(=O)[C@@H](NC(=O)[C@H](CC(C)C)NC(=O)N(Cc1ccccc1)C[C@@H](O)[C@H](Cc1ccccc1)NC(=O)OC(C)(C)C)C(C)C was -5.6

----------
Test: ZIKV-mCherry secondary qHTS for Zika virus inhibitors (AID 1347158)
Conditions: Vero cells, ZIKV-mCherry infection imaging, 48-72 h; series mostly up to 49.2 µM
Records with an inconclusive call do not appear. Active and inactive are the calls of the source. The call rests on the fitted dose curve; in most records, active means well fitted inhibition curve with a large enough effect; inconclusive means small, poorly fitted or top-dose-only effect; inactive means no such curve, though single readings can be large or run the other way.
Bench note: report the call from True (active), False (inactive)

// outcome(item) with item = COc1cc2c(c(O)c1OC/C=C(\C)CC/C=C(/C)CCC=C(C)C)CN(C(CCC(=O)O)C(=O)O)C2=O (stereo not given)
True

Status in this test for Cc1cc(C)c2nc(-c3ccccn3)cc(C(=O)Nc3ccc(S(=O)(=O)Nc4onc(C)c4C)cc3)c2c1 ?
False

Recorded call for COc1cccc(OC)c1-c1cc(C(=O)N[C@@H](CC(C)C)C(=O)O)nn1-c1ccnc2cc(Cl)ccc12 ?
False

Test call, this compound: COc1cnc(-c2ccc(Cn3c(CC(C)(C)C(=O)O)c(SC(C)(C)C)c4cc(OC[C@@H]5Cc6ccccc6N5C(C)=O)ccc43)cc2)nc1
True

I would be grateful if you could indicate the recorded call for COc1cccc(CNc2ccc(S(=O)(=O)Nc3nc4ccccc4s3)cc2)c1O .
False

----------
Test system: HEK293
Assay: Cytotoxic Profiling of Annotated Libraries Using Quantitative High-Throughput Screening (AID 1296008); also: % is scaled to controls: 0 for no effect and ±100 for the full control effect; nearly all actives have a fitted effect of over 60% in size
Conditions: Five cell lines viability, CellTiter-Glo ATP luminescence, 48-72 h; active compounds read low
Results filed as inconclusive are left out.
assay-metric: max response (%)
Hi! Could you send only the number? It should be in %, unit omitted.

Briefly, max response measured for C=C1CC23CC1CCC2C12OC(=O)C(C)(C(O)C(O)C1O)C2C3C(=O)O (stereo not given) : -2

max response in this record for C/C=C/C=C/C=C/C(=O)N(C)C(C(=O)NC(C)C(=O)N1CCCC1C(N)=O)C(C)C (stereo not given) : 2.9

In plain terms, COC(=O)C(Cc1ccccc1)NC(=O)c1ccccc1 (stereo not given) has a documented max response of -8.19

compound CC(C)Oc1ccc(-c2nc(-c3cccc4c3CCC4NCCC(=O)O)no2)cc1C#N (stereo not given) , max response observed: -10.1

# compound CC1=C(C)C(=O)OC(C(C)C2C(O)CC3C4C5OC5C5(O)CC(OC6OC(CO)C(OC7OC(C)C(O)C(O)C7O)C(O)C6O)CC(O)C5(C)C4CCC32C)C1 (stereo not given) ; its max response = -3.17

----------
Tested on: Es-2
Assay: Primary qHTS to identify gynecologic anti-cancer compounds using libraries of approved drugs and bioactive compounds (AID 1345084); also: % is scaled to controls: 0 for no effect and ±100 for the full control effect; nearly all actives have a fitted effect of over 55% in size
Conditions: Gynecologic cancer cell panel viability, ATPlite luminescence, 48 h; series mostly up to 57.5 µM
Results filed as inconclusive are left out. The source made the active and inactive calls. Calls follow the shape of the dose curve; as a rule, active = well fitted cell-killing curve with a large enough effect; inconclusive = small, poorly fitted or top-dose-only effect, or effect the other way; inactive = flat fitted curve, though single readings scatter.
assay-metric: activity change, negative = cytotoxicity

The cases that follow already have their activity change, negative = cytotoxicity on record.
[
  {
    "compound": "C=C1C(=O)O[C@@H]2/C=C(\\C)CC/C=C(\\C(=O)O[C@@H]3O[C@H](CO)[C@@H](O)[C@H](O)[C@H]3O)CC[C@@H]12",
    "assay-metric": "activity change, negative = cytotoxicity",
    "experimental-result": "inactive"
  },
  {
    "compound": "CC(C)c1c(NC(=O)Nc2ccc(Cl)cc2)c(=O)n(-c2ccccc2)n1C",
    "assay-metric": "activity change, negative = cytotoxicity",
    "experimental-result": "inactive"
  },
  {
    "compound": "CNc1nc(Cc2ccccc2)nc2c1CCNC[C@@H]2C",
    "assay-metric": "activity change, negative = cytotoxicity",
    "experimental-result": "inactive"
  },
  {
    "compound": "COc1cc(C2OCC3(O)C(c4ccc(O[C@@H]5O[C@H](CO)[C@@H](O)[C@H](O)[C@H]5O)c(OC)c4)OCC23O)ccc1O (stereo partly specified)",
    "assay-metric": "activity change, negative = cytotoxicity",
    "experimental-result": "inactive"
  },
  {
    "compound": "COc1ccc(/C=C/C(=O)O[C@@H]2[C@@H](O[C@@H]3O[C@H](CO)[C@@H](O)[C@H](O)[C@H]3O)[C@@H](O)[C@H](O[C@H]3C4C=CO[C@@H](O[C@@H]5O[C@H](CO)[C@@H](O)[C@H](O)[C@H]5O)C4[C@@]4(CO)O[C@@H]34)O[C@H]2C)cc1 (stereo partly specified)",
    "assay-metric": "activity change, negative = cytotoxicity",
    "experimental-result": "3.1% [at 11.6 µM] (inactive)"
  }
]

Proceeding to the next compound to report its activity change, negative = cytotoxicity.
Form: compound = CC[C@H]1OC(=O)[C@H](C)C(=O)[C@H](C)[C@@H](OC2O[C@H](C)C[C@H](N(C)C)[C@H]2O)[C@@H](C)C[C@@H](C)C(=O)/C=C/[C@]1(C)O (stereo partly specified) ; activity change, negative = cytotoxicity = inactive

----------
System: NIH3T3
Assay: qHTS assay to identify novel small-molecules to repurpose for Merkel cell carcinoma treatment (AID 1296009); also: nearly all actives have a fitted effect of over 60% in size
Details: MCC and control cell lines, CellTiter-Glo viability, 72 h; at 44.8 µM (top of the series) unless noted
Results filed as inconclusive are left out. Active and inactive are the calls of the source. Calls follow the shape of the dose curve; as a rule, active = well fitted inhibition curve with a large enough effect; inconclusive = small, poorly fitted or top-dose-only effect; inactive = flat fitted curve, though single readings scatter.
assay-metric: outcome

Below, each entry is followed by its recorded outcome result.
[
  {
    "compound": "COc1cc(CC2COC(c3ccc(OC4OC(CO)C(O)C(O)C4O)c(OC)c3)C2CO)ccc1O (stereo not drawn)",
    "target-or-system": "NIH3T3",
    "outcome": "inactive [at 17.4 µM]"
  },
  {
    "compound": "CC1(CO)CC(O)C2(C)CCC3(C)C(=CCC4C5(C=O)CCC(OC6OC(C(=O)O)C(O)C(O)C6OC6OC(C(=O)O)C(O)C(O)C6O)C(C)(C)C5CCC43C)C2C1 (stereo not drawn)",
    "target-or-system": "NIH3T3",
    "outcome": "inactive [at 9.27 µM]"
  },
  {
    "compound": "CC(CCO)CCC1C2(C)CCCC(C)(C)C2CC[C@@]1(C)O (stereo partly drawn)",
    "target-or-system": "NIH3T3",
    "outcome": "inactive"
  },
  {
    "compound": "NC(=O)[C@H](Cc1ccccc1)NC(=O)[C@H](CCCN=C(N)N)NC(=O)C12CC3CC(CC(C3)C1)C2",
    "target-or-system": "NIH3T3",
    "outcome": "inactive [at 9.27 µM]"
  },
  {
    "compound": "C=C(C)C1CCC2(C(=O)OC3OC(COC4OC(CO)C(O)C(O)C4O)C(OC4OC(C)C(O)C(O)C4O)C(O)C3O)CCC3(C(=O)O)C(CCC4C5(C)CCC(=O)C(C)(C)C5CCC43C)C12 (stereo not drawn)",
    "target-or-system": "NIH3T3",
    "outcome": "inactive [at 9.27 µM]"
  }
]

For record C#CCCCn1cc(-c2cccc3c2N[C@@H](C)CC(=O)N3)cn1 the listed outcome is inactive

----------
System: NIH3T3
Experiment: Cytotoxic Profiling of Annotated Libraries Using Quantitative High-Throughput Screening (AID 1296008); also: % is scaled to controls: 0 for no effect and ±100 for the full control effect; nearly all actives have a fitted effect of over 60% in size
Details: Five cell lines viability, CellTiter-Glo ATP luminescence, 48-72 h; active compounds read low
Results filed as inconclusive are left out.
Would you kindly list max response for each of these molecules?
A number alone suffices; assume %.

Measured max response of C=C1CC2C(C)(CCC(=O)O)C(C(C)(C)O)CCC2(C)C2(C(=O)OC)C(=O)C(C)(O)C(=O)C12C (stereo unspecified) : 0.874

max response in this record for O=C(/C=C/c1ccc(O)cc1)OC[C@H]1O[C@H](O[C@@]2(CO)O[C@@H](CO)[C@H](O)[C@H]2O)[C@H](O)[C@@H](O)[C@@H]1O : -0.438

Form field max response, entry CC1=CC2=C(C)C(=O)[C@](C)(O)[C@H](O)C2=CO1 : -3.34

Please fill in: max response reported for O=C(Nc1ccn(Cc2c(F)cccc2C(F)(F)F)n1)c1c(F)cccc1F = 2.19

The recorded max response for entry OC[C@H]1O[C@@H](OC[C@H]2O[C@@H](OCc3ccccc3)[C@H](O)[C@@H](O)[C@@H]2O)[C@H](O)[C@@H](O)[C@@H]1O equals -6.32

The molecule COC(=O)Cn1nc(-c2cccc(OC)c2)c2ccccc21 showed max response equal to 2.46

Noted for CC1=CCC[C@@H]2[C@@](C)(CCc3ccoc3)[C@H](C(=O)O)CC[C@@]12C : its max response reads -9.18

The recorded max response for entry CC(=O)OC[C@]12[C@H](OC(C)=O)[C@H](OC(=O)c3ccccc3)[C@@H]3[C@@H](OC(C)=O)[C@]1(OC3(C)C)[C@H](C)C[C@H](OC(=O)c1ccccc1)[C@@H]2OC(=O)c1ccccc1 equals -7.63

Per the record, CC1=C(C(=O)OC2OC(COC3OC(CO)C(O)C(O)C3O)C(O)C(O)C2O)C(C)(C)CCC1 (stereo unspecified) has max response of 0.403

For this molecule ( COc1cc2c(c(O)c1OC/C=C(\C)CC/C=C(/C)CCC=C(C)C)CN(C(CCC(=O)O)C(=O)O)C2=O (stereo unspecified) ), measured max response is -3.47

Entry CC1(C)C2CC[C@]3(C)C(C(=O)C=C4[C@H]5C[C@@](C)(C(=O)O)CC[C@]5(C)CC[C@]43C)[C@@]2(C)CC[C@@H]1O (stereo partly specified) ; max response = 2.21

Query C[C@H](/C=C/[C@@]1(O)[C@H](C)CC(=O)CC1(C)C)O[C@@H]1O[C@H](CO[C@@H]2OC[C@@H](O)[C@H](O)[C@H]2O)[C@@H](O)[C@H](O)[C@H]1O yields max response of -1.42

Reported max response of C[C@H]1CC(=O)C2=C(C1)C(O)C(O)[C@@]1(O)[C@H]2C(=O)c2cccc(O)c2[C@@H]1O (stereo partly specified) : 3.59

Data point: O=C(O)CC1CCC(c2ccc(-c3ccc(Nc4ccc(C(F)(F)F)nc4)cn3)cc2)CC1 (stereo unspecified) ; max response = 2.56

So, C=C1CC23CC1CCC2C12OC(=O)C(C)(C(O)CC1O)C2C3C(=O)O (stereo unspecified) ? Its max response was -6.25

Lab book: max response of COc1ccc(CC(NC(C)=O)C(=O)O)cc1 (stereo unspecified) noted as 1.53
